Source: the supplement of paper PMC10567573

B1: HDAC6 (parent)
chain: ACAQLATGAACRLVEAVLSGEVLN

Variants of: B1
MEASUREMENT_NOTES: protein stability index of a GFP-peptide fusion (GPS, HEK-293T) (PSI 1-6); higher = more stable;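 further: lentivirally expressed fusions sorted by FACS into six bins by GFP to DsRed ratio, PSI derived from sequencing read proportions per bin multiplied by bin number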
SETTINGS: c terminus: a fixed tail appended

[
  {
    "BIOPOLYMER_SEQUENCE": "ACAQLATGAACRLVEAVLSEEVLN [G20E]",
    "protein stability index": 1.43
  },
  {
    "BIOPOLYMER_SEQUENCE": "ACAYLATGAACRLVEAVLSGEVLN [Q4Y]",
    "protein stability index": 4.38
  },
  {
    "BIOPOLYMER_SEQUENCE": "ACAQLASGAACRLVEAVLSGEVLN [T7S]",
    "protein stability index": 2.78
  },
  {
    "BIOPOLYMER_SEQUENCE": "ACAQLATGIACRLVEAVLSGEVLN [A9I]",
    "protein stability index": 3.52
  },
  {
    "BIOPOLYMER_SEQUENCE": "ACAQLATGAACQLVEAVLSGEVLN [R12Q]",
    "protein stability index": 1.97
  },
  {
    "BIOPOLYMER_SEQUENCE": "ACAQLATGAACRLVEAVLSGEVPN [L23P]",
    "protein stability index": 1.96
  },
  {
    "BIOPOLYMER_SEQUENCE": "ACSQLATGAACRLVEAVLSGEVLN [A3S]",
    "protein stability index": 4.04
  },
  {
    "BIOPOLYMER_SEQUENCE": "ACAQLATGAACRLVEAVLSGEVHN [L23H]",
    "protein stability index": 3.51
  },
  {
    "BIOPOLYMER_SEQUENCE": "ACAQLATGAACRLVEPVLSGEVLN [A16P]",
    "protein stability index": 2.28
  },
  {
    "BIOPOLYMER_SEQUENCE": "ACDQLATGAACRLVEAVLSGEVLN [A3D]",
    "protein stability index": 2.88
  },
  {
    "BIOPOLYMER_SEQUENCE": "ACAQEATGAACRLVEAVLSGEVLN [L5E]",
    "protein stability index": 2.48
  },
  {
    "BIOPOLYMER_SEQUENCE": "ACAQLATGAACRLSEAVLSGEVLN [V14S]",
    "protein stability index": 2.15
  },
  {
    "BIOPOLYMER_SEQUENCE": "ACAQLATGAACYLVEAVLSGEVLN [R12Y]",
    "protein stability index": 3.46
  },
  {
    "BIOPOLYMER_SEQUENCE": "ACAQLATGEACRLVEAVLSGEVLN [A9E]",
    "protein stability index": 3.49
  },
  {
    "BIOPOLYMER_SEQUENCE": "ATAQLATGAACRLVEAVLSGEVLN [C2T]",
    "protein stability index": 3.63
  },
  {
    "BIOPOLYMER_SEQUENCE": "ACAQLATGAACRLVEAQLSGEVLN [V17Q]",
    "protein stability index": 1.85
  },
  {
    "BIOPOLYMER_SEQUENCE": "ACAQLADGAACRLVEAVLSGEVLN [T7D]",
    "protein stability index": 1.79
  },
  {
    "BIOPOLYMER_SEQUENCE": "ACAQLATGAACRLVEAVLSGEVDN [L23D]",
    "protein stability index": 2.49
  },
  {
    "BIOPOLYMER_SEQUENCE": "ACAQLATGNACRLVEAVLSGEVLN [A9N]",
    "protein stability index": 1.09
  },
  {
    "BIOPOLYMER_SEQUENCE": "ACAQLATGAACRLVEAVLSGEELN [V22E]",
    "protein stability index": 1.84
  },
  {
    "BIOPOLYMER_SEQUENCE": "ACAQLATGAACALVEAVLSGEVLN [R12A]",
    "protein stability index": 2.3
  },
  {
    "BIOPOLYMER_SEQUENCE": "ACAQLATGAACRLVEAVLSDEVLN [G20D]",
    "protein stability index": 2.25
  },
  {
    "BIOPOLYMER_SEQUENCE": "ACAQLATGAACRLCEAVLSGEVLN [V14C]",
    "protein stability index": 3.54
  },
  {
    "BIOPOLYMER_SEQUENCE": "ACAQGATGAACRLVEAVLSGEVLN [L5G]",
    "protein stability index": 2.42
  },
  {
    "BIOPOLYMER_SEQUENCE": "ADAQLATGAACRLVEAVLSGEVLN [C2D]",
    "protein stability index": 2.98
  },
  {
    "BIOPOLYMER_SEQUENCE": "ACAQDATGAACRLVEAVLSGEVLN [L5D]",
    "protein stability index": 2.61
  },
  {
    "BIOPOLYMER_SEQUENCE": "ACAQLATGAACRLNEAVLSGEVLN [V14N]",
    "protein stability index": 3.78
  },
  {
    "BIOPOLYMER_SEQUENCE": "ACAQVATGAACRLVEAVLSGEVLN [L5V]",
    "protein stability index": 1.16
  },
  {
    "BIOPOLYMER_SEQUENCE": "ACAQLATGWACRLVEAVLSGEVLN [A9W]",
    "protein stability index": 2.99
  },
  {
    "BIOPOLYMER_SEQUENCE": "ACAQLATGAACRLVEAVLSLEVLN [G20L]",
    "protein stability index": 3.07
  },
  {
    "BIOPOLYMER_SEQUENCE": "ACAQLATGPACRLVEAVLSGEVLN [A9P]",
    "protein stability index": 2.4
  },
  {
    "BIOPOLYMER_SEQUENCE": "ACAQLATGAACPLVEAVLSGEVLN [R12P]",
    "protein stability index": 2.66
  },
  {
    "BIOPOLYMER_SEQUENCE": "ACNQLATGAACRLVEAVLSGEVLN [A3N]",
    "protein stability index": 1.68
  },
  {
    "BIOPOLYMER_SEQUENCE": "ACAQLATGACCRLVEAVLSGEVLN [A10C]",
    "protein stability index": 2.16
  },
  {
    "BIOPOLYMER_SEQUENCE": "ACAQLATGAACRLVEAVTSGEVLN [L18T]",
    "protein stability index": 2.02
  },
  {
    "BIOPOLYMER_SEQUENCE": "CCAQLATGAACRLVEAVLSGEVLN [A1C]",
    "protein stability index": 1.16
  },
  {
    "BIOPOLYMER_SEQUENCE": "ACAQLATGAACRLVEATLSGEVLN [V17T]",
    "protein stability index": 2.04
  },
  {
    "BIOPOLYMER_SEQUENCE": "ACAQLATGAACRLVEASLSGEVLN [V17S]",
    "protein stability index": 1.93
  },
  {
    "BIOPOLYMER_SEQUENCE": "ACAQLATGAACDLVEAVLSGEVLN [R12D]",
    "protein stability index": 1.48
  }
]
